Source listed as paper PMC2396520.

Record form. Attribute: Anti-Candida activity (%) at 100 µg/mL. Fill in for each entry.
System: Candida albicans UP10
Type: cell-based
test-context: C7/pc42 H2 alanine-substituted derivatives; 100 µg/mL, 37°C, 6 h, CFU assay, triplicate
Where a SMILES comes first, the peptide text is derived from it.
Just the number in %, nothing appended.

**Q:** Form field: reported Anti-Candida activity (%) at 100 µg/mL of CC[C@H](C)[C@H](NC(=O)[C@@H](N)Cc1ccc(O)cc1)C(=O)N[C@@H](CO)C(=O)N[C@@H](CS)C(=O)N[C@@H](Cc1ccc(O)cc1)C(=O)N[C@@H](CC(N)=O)C(=O)NCC(=O)N[C@@H](C)C(=O)N[C@H](C(=O)N[C@@H](CO)C(=O)N[C@@H](Cc1ccc(O)cc1)C(=O)N[C@@H](CC(N)=O)C(=O)N[C@@H](C)C(=O)N[C@@H](CCCCN)C(=O)N[C@@H](Cc1ccccc1)C(=O)N[C@@H](CCCCN)C(=O)O)[C@@H](C)O [Q13A] (H-YISCYNGATSYNAKFK-OH; N-terminus and C-terminus assumed)
**A:** 100.00

**Q:** Same again, this time with CC[C@H](C)[C@H](NC(=O)[C@@H](N)Cc1ccc(O)cc1)C(=O)N[C@@H](CO)C(=O)N[C@@H](CS)C(=O)N[C@@H](Cc1ccc(O)cc1)C(=O)N[C@@H](CC(N)=O)C(=O)NCC(=O)N[C@@H](C)C(=O)N[C@H](C(=O)N[C@@H](CO)C(=O)N[C@@H](C)C(=O)N[C@@H](CC(N)=O)C(=O)N[C@@H](CCC(N)=O)C(=O)N[C@@H](CCCCN)C(=O)N[C@@H](Cc1ccccc1)C(=O)N[C@@H](CCCCN)C(=O)O)[C@@H](C)O [Y11A] (H-YISCYNGATSANQKFK-OH; N-terminus and C-terminus assumed)
**A:** 55.70

###

Tested on: Candida albicans UP10
Assay type: cell-based
test-context: C7/pc42 H2 alanine-substituted derivatives; 100 µg/mL, 37°C, 6 h, CFU assay, triplicate
Where a SMILES comes first, the peptide text is derived from it.
Assignment: determine reported Anti-Candida activity (%) at 100 µg/mL for the given compounds.
Answer in %, number only, no unit symbol.

**Q:** Which Anti-Candida activity (%) at 100 µg/mL is reported for this compound? CC[C@H](C)[C@H](NC(=O)[C@@H](N)Cc1ccc(O)cc1)C(=O)N[C@@H](CO)C(=O)N[C@@H](CS)C(=O)N[C@@H](C)C(=O)N[C@@H](CC(N)=O)C(=O)NCC(=O)N[C@@H](C)C(=O)N[C@H](C(=O)N[C@@H](CO)C(=O)N[C@@H](Cc1ccc(O)cc1)C(=O)N[C@@H](CC(N)=O)C(=O)N[C@@H](CCC(N)=O)C(=O)N[C@@H](CCCCN)C(=O)N[C@@H](Cc1ccccc1)C(=O)N[C@@H](CCCCN)C(=O)O)[C@@H](C)O [Y5A] (H-YISCANGATSYNQKFK-OH; N-terminus and C-terminus assumed)
**A:** 98.10

**Q:** Input C[C@H](NC(=O)CNC(=O)[C@H](CC(N)=O)NC(=O)[C@H](Cc1ccc(O)cc1)NC(=O)[C@H](CS)NC(=O)[C@H](CO)NC(=O)[C@H](C)NC(=O)[C@@H](N)Cc1ccc(O)cc1)C(=O)N[C@H](C(=O)N[C@@H](CO)C(=O)N[C@@H](Cc1ccc(O)cc1)C(=O)N[C@@H](CC(N)=O)C(=O)N[C@@H](CCC(N)=O)C(=O)N[C@@H](CCCCN)C(=O)N[C@@H](Cc1ccccc1)C(=O)N[C@@H](CCCCN)C(=O)O)[C@@H](C)O [I2A] (H-YASCYNGATSYNQKFK-OH; N-terminus and C-terminus assumed)
**A:** 99.77
